- experimental_system: malate synthase (MS, GlcB) (Mycobacterium tuberculosis, UniProt P9WK17 1-741)
- Sequence (P9WK17 whole entry): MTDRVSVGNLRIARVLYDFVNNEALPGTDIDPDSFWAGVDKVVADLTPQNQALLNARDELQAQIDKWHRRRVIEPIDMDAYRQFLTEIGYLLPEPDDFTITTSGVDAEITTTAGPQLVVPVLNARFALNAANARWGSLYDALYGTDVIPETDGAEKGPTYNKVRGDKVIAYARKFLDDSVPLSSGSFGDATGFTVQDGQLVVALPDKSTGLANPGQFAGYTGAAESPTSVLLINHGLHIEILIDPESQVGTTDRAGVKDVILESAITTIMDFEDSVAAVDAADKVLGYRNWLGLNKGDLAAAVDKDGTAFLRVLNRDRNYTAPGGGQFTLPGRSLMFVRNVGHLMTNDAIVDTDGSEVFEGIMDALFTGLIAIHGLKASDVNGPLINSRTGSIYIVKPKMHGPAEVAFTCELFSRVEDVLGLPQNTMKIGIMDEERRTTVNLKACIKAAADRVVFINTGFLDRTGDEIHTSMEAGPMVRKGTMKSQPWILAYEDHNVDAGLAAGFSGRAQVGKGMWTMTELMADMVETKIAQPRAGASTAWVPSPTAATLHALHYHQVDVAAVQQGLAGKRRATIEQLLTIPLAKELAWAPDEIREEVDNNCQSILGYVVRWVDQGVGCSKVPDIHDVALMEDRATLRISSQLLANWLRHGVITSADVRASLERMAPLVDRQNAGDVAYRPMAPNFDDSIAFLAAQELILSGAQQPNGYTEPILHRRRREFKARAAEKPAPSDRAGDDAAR
- method_notes: enzyme inhibition (mixed); glyoxylate, acetyl-CoA, 5 mM Mg2+
- conditions_used: protein: recombinant; tags: C-terminal His6; G4 parallel (CD, NMR); modeled as tetramer of 4 strands
readout_type: pKi
Numbers only, as −log10 of the molar value.

Fill in: pKi of GGTGGTGGTGG (structured_DNA) [MS10-Trunc] is ___
6.64
